Data provenance: paper PMC13334471

# assay.target: F-actin from rabbit back muscle (rabbit, UniProt P68135 1-377)
# assay.overview: SPR
result.type: kon (M⁻¹ s⁻¹)

Some solved cases for reference:
SKTRGNAKVTGRWK (peptide, UniProt P45379-6 275-288, looked up) [Human cTnT-C14 peptide containing HCM-linked mutation K280N]: 3810
SKTRGKAKVTGCWK (peptide, UniProt P45379-6 275-288, looked up) [Human cTnT-C14 peptide containing HCM-linked mutation R286C]: 1570

[I] SKTRGKAKVTGRWK (peptide, UniProt P45379-6 275-288, looked up)
[II] SKTCGKAKVTGRWK (peptide, UniProt P45379-6 275-288, looked up) [Human cTnT-C14 peptide containing HCM-linked mutation R278C]
From the items above, decide which of I and II has the lower kon reading. Write down the label of the entry you select.
II
